assay: Solubility of compound at pH 5; format: physicochemical; conditions: buffer
Entries annotated with measured solubility

CCn1c(CNC(=O)c2nc(Cl)cnc2N)[n+](CC)c2ccc(OCC(=O)NCCOCP(C)(C)=O)cc21 = > 5%
CCn1c(CNC(=O)c2nc(Cl)c(N)nc2N)[n+](CC)c2cc(OCCCP(=O)([O-])OCCOC)ccc21 = > 5%
CCn1c(CNC(=O)c2nc(Cl)cnc2N)[n+](CCO)c2cc(OCC(=O)N3CCN(C(C)=O)CC3)ccc21 = > 5%
CCOP(=O)([O-])CCCOc1ccc2c(c1)[n+](CC)c(CNC(=O)c1nc(Cl)c(N)nc1N)n2CC1CCOCC1 = < 5%

Note: attention shifts to another entry.
solubility measured on "CCn1c(CNC(=O)c2nc(Cl)cnc2N)[n+](CC)c2ccc(C(=O)NCCCN)cc21" = > 2%

* * *

assay: Cytotoxicity against human U-937 cells by MTT assay; assay type: toxicity, cell-based
pIC50: −log10 of the molar value.
Entries and their measured pIC50 follow.

CCn1c(CNC(=O)c2nc(Cl)cnc2N)[n+](CC)c2ccc(C(=O)N(C)CCN(C)C)cc21 = < 3.10

Would you kindly look at the next entry?
So for "CCn1c(CNC(=O)c2nc(Cl)cnc2N)[n+](CC)c2ccc(OCC(=O)NCCOCP(C)(C)=O)cc21" , the logged pIC50 turned out to be < 3.10

* * *

biological target: UniProtKB Q12791; experiment: Inhibition of BK channel (unknown origin) at 10 uM relative to control; format: toxicity
Sequence (Q12791 whole entry): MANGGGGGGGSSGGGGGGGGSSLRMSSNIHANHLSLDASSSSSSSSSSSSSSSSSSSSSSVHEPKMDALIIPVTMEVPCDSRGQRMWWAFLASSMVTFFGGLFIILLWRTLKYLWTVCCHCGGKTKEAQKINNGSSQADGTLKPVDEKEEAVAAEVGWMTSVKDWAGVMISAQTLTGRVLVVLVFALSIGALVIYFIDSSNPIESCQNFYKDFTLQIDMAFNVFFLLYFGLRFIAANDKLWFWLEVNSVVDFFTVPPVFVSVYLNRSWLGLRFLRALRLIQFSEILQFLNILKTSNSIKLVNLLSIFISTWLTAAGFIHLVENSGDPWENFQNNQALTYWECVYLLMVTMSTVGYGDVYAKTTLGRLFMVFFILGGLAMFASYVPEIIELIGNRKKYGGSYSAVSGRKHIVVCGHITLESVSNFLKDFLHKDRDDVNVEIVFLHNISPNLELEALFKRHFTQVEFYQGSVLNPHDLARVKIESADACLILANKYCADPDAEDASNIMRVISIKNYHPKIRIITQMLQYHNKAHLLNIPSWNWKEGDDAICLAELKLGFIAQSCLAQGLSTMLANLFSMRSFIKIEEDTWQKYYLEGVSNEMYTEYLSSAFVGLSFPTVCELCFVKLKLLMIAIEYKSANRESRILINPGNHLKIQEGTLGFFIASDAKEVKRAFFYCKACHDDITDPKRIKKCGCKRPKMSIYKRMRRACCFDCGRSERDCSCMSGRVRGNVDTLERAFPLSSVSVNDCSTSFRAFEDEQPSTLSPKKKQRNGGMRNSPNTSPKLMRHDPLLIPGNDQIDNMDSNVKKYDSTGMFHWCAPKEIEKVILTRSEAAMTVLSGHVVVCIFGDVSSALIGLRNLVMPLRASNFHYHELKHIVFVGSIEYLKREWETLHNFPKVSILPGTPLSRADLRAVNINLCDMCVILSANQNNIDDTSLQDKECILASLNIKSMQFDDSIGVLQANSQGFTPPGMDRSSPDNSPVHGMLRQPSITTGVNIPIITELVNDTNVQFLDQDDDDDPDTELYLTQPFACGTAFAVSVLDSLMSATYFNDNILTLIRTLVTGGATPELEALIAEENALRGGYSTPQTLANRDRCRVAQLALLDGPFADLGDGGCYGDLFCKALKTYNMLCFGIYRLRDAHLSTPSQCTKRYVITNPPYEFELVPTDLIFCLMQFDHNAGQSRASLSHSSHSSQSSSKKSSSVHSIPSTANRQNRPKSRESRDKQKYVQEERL
reported.property: inhibition at 10 µM

Just so you know, measured inhibition at 10 µM for "CCn1c(CNC(=O)c2nc(Cl)cnc2N)[n+](CC)c2ccc(OCC(=O)NCCOCP(C)(C)=O)cc21" came out at < 50%

* * *

test: Cytotoxicity against rat hepatocytes by LDH assay; format: toxicity, cell-based, Hepatocyte
reported.property: IC50

CCn1c(CNC(=O)c2nc(Cl)cnc2N)[n+](CC)c2ccc(C(=O)N(C)CCN(C)C)cc21 = > 800 µM

Entry "CCn1c(CNC(=O)c2nc(Cl)cnc2N)[n+](CC)c2ccc(OCC(=O)NCCOCP(C)(C)=O)cc21" ; IC50 = > 800 µM

* * *

test system: Lung; experiment: Inhibition of lung water resorption in Wistar rat at 30 ug/kg, IT(Intratracheal) incubated for 3 hrs relative to control; format: functional
reported.property: inhibition in vivo at 0.03 mg/kg

CCn1c(CNC(=O)c2nc(Cl)cnc2N)[n+](CC)c2cc(C(=O)NCCCN)ccc21 = 24%
CCOP(=O)([O-])CCCOc1ccc2c(c1)[n+](CC)c(CNC(=O)c1nc(Cl)c(N)nc1N)n2CCCC#N = 16%
CCn1c(CNC(=O)c2nc(Cl)cnc2N)[n+](CC)c2cc(C(=O)N3CCC(N(C)C)CC3)ccc21 = 26%
CCn1c(CNC(=O)c2nc(Cl)cnc2N)[n+](CC)c2cc(C(=O)N3CCC(N)CC3)ccc21 = 26%
CC[n+]1c(CNC(=O)c2nc(Cl)cnc2N)n(CC2CCOCC2)c2ccc(OCC(=O)N(Cc3nc(C)ccc3O)C[C@H](C)O)cc21 = 33%

According to the records, this compound "CCn1c(CNC(=O)c2nc(Cl)c(N)nc2N)[n+](CC)c2cc(OCCCP(=O)([O-])OCCOC)ccc21" displays inhibition in vivo at 0.03 mg/kg of 22%

What the record says about "CCn1c(CNC(=O)c2nc(Cl)cnc2N)[n+](CC)c2cc(OCC(=O)NCCOCP(C)(C)=O)ccc21" : inhibition in vivo at 0.03 mg/kg is 30%

Data point: "CCn1c(CNC(=O)c2nc(Cl)c(N)nc2N)[n+](CC)c2cc(OCCCP(=O)([O-])OC[C@H]3CCCO3)ccc21" ; inhibition in vivo at 0.03 mg/kg = 16%
